Source of measurements: ChEMBL document CHEMBL2169883

# test: Ratio of drug level from brain to plasma in rat administered via intranasal route
# Type: ADME
# assay context: inhaled or intranasal, read-out: BPR
attribute measured: Kp

Problem: Look up Kp for this molecule: CCN(C)C(=O)Oc1cccc([C@H](C)N(C)C)c1 [RIVASTIGMINE]
Solution: 3

###

# test: Cmax in mouse brain at 25 mg/kg, sc
# Assay type: ADME, organism-based
# Design: dose 25 mg/kg, route subcutaneous
attribute measured: Cmax (ng/mL)
One number for each entry, in ng/mL.

Problem: Looking for the measured Cmax of COc1ccc(Nc2ccc(OC)c3ccccc23)cc1 , can you help?
Solution: 410

###

# test: in vivo
# assay context: rat, brain/plasma, po, 16 mg/kg
# Description: Ratio of drug level from brain to plasma in rat at 16 mg/kg, po
attribute measured: Kp
Answers are plain numbers.

Problem: # input compound: Cl.Nc1c2c(nc3ccccc13)CCCC2.O ; wanted: its Kp
Solution: 5

###

# test: Ratio of drug level from brain to plasma in mouse at 25 mg/kg, sc
# Assay type: ADME, organism-based
# Design: dose 25 mg/kg, route subcutaneous
# assay context: read-out: BPR
attribute measured: Kp
Give bare numbers.

Problem: What does the data say about its Kp? Entry: COc1ccc(Nc2ccc(OC)c3ccccc23)cc1
Solution: 2

###

# test: Tmax in mouse brain at 25 mg/kg, sc
# Format: ADME, organism-based
# Design: dose 25 mg/kg, route subcutaneous
attribute measured: Tmax

Problem: Given COc1ccc(Nc2ccc(OC)c3ccccc23)cc1 , state its recorded Tmax.
Solution: 1 h
